molecular target: K-Ras G13C (Homo sapiens (Human), UniProt P01116+P62937, G13C); assay: Ras-Raf (BRAF RBD) disruption / FRET / MOA assay, KRAS G13C; format: biochemical; settings: KRAS G13C; Ras-Raf disruption/FRET/MOA assay; read-out: IC50* KRAS G13C FRET data
Sequence (P01116-2 other isoform, or with tags, fused parts or gaps G13C): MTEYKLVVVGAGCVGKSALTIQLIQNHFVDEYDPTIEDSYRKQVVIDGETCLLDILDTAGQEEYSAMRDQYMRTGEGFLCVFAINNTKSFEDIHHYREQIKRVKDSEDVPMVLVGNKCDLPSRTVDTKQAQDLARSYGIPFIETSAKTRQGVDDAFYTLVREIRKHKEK
Sequence (P62937 whole entry): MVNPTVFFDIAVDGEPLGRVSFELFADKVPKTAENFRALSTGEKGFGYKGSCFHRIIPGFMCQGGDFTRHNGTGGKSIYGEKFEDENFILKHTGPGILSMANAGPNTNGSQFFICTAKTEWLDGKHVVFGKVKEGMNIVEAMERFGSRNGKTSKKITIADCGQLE
ASSAY READOUT: IC50

[[record]]
compound = "C=CC(=O)N1CC[C@@]2(C1)OCN([C@H](C(=O)N[C@H]1Cc3cccc(c3)-c3ccc4c(c3)c(c(-c3cccnc3[C@H](C)OC)n4CC)CC(C)(C)COC(=O)[C@@H]3CCCN(N3)C1=O)C(C)C)C2=O (atropisomer, axis not shown)"
measured_target = "K-Ras G13C (Homo sapiens (Human), UniProt P01116+P62937, G13C)"
observed_value = "100 to 1000 nM"

[[record]]
compound = "C=CC(=O)N1CC(C(=O)N(C)[C@H](C(=O)N[C@H]2Cc3cccc(c3)-c3ccc4c(c3)c(c(-c3cccnc3[C@H](C)OC)n4CC)CC(C)(C)COC(=O)[C@@H]3CCCN(N3)C2=O)C(C)C)C1 (atropisomer, axis not shown)"
measured_target = "K-Ras G13C (Homo sapiens (Human), UniProt P01116+P62937, G13C)"
observed_value = "1000 to 10000 nM"

[[record]]
compound = "CCn1c(-c2cccnc2COC)c2c3cc(ccc31)-c1cccc(c1)C[C@H](NC(=O)[C@H](C(C)C)N(C)C(=O)[C@H]1CCN(C(=O)C#CCN(C)C)C1)C(=O)N1CCC[C@H](N1)C(=O)OCC(C)(C)C2 (atropisomer, axis not shown)"
measured_target = "K-Ras G13C (Homo sapiens (Human), UniProt P01116+P62937, G13C)"
observed_value = "100 to 1000 nM"


For the compound CCn1c(-c2cccnc2[C@H](C)OC)c2c3cc(ccc31)-c1cc(O)cc(c1)C[C@H](NC(=O)[C@H](C(C)C)N(C)C(=O)[C@H]1CCN(C(=O)C#CC(C)(C)N(C)C)C1)C(=O)N1CCC[C@H](N1)C(=O)OCC(C)(C)C2 (atropisomer, axis not shown) , the measured IC50 on K-Ras G13C (Homo sapiens (Human), UniProt P01116+P62937, G13C) was < 10 nM

====

target: NRAS WT (Homo sapiens (Human), UniProt P01111+P62937); experiment: Ras-Raf (BRAF RBD) disruption / FRET / MOA assay, NRAS WT; type: biochemical; details: read-out: IC50* NRAS WT FRET data
Sequence (P01111 whole entry): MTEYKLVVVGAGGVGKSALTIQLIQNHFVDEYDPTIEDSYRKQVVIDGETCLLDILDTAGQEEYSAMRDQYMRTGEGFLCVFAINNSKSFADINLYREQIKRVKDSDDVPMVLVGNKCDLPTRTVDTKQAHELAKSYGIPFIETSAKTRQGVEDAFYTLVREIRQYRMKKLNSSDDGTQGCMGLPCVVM
Sequence (P62937 whole entry): as the sequence (P62937 whole entry) above
pIC50: −log10 of the molar value.
The following molecules are listed with their measured pIC50 values.

Worked examples follow.
[[record]]
molecule = "C=CC(=O)N1CC[C@H](C(=O)N(C)[C@H](C(=O)N[C@H]2Cc3nc(ns3)-c3ccc4c(c3)c(c(-c3cccnc3[C@H](C)OC)n4CC)CC(C)(C)COC(=O)[C@@H]3CCCN(N3)C2=O)C(C)C)C1 (atropisomer, axis not shown)"
observed_value = "5.00 to 6.00"

[[record]]
molecule = "C=CC(=O)N1CC[C@H](C(=O)N(C)[C@H](C(=O)N[C@H]2Cc3cc(O)cc(c3)-c3ccc4nc(-c5cccnc5COC)c(n4c3)CC(C)(C)COC(=O)[C@@H]3CCCN(N3)C2=O)C(C)C)C1"
observed_value = "< 5.00"


Recorded pIC50 (molecule CO[C@@H](C)c1ncccc1-c1c2c3cc(ccc3n1CC(F)(F)F)-c1nc(co1)C[C@H](NC(=O)[C@@H](COC1CN(C(=O)C#CC(C)(C)N(C)C)C1)C(C)C)C(=O)N1CCC[C@H](N1)C(=O)OCC(C)(C)C2 (atropisomer, axis not shown) ): < 5.00

Just so you know, measured pIC50 for C=CC(=O)N1CCO[C@@H]2CN(C(=O)N(C)[C@H](C(=O)N[C@H]3Cc4nc(cs4)-c4ccc5c(c4)c(c(-c4cccnc4[C@H](C)OC)n5CC)CC(C)(C)COC(=O)[C@@H]4CCCN(N4)C3=O)C(C)C)C[C@H]21 (atropisomer, axis not shown) came out at 6.00 to 7.00

====

target: NRAS G12C (Homo sapiens (Human), UniProt P01111+P62937, G12C); test: Ras-Raf (BRAF RBD) disruption / FRET / MOA assay, NRAS G12C; format: biochemical; conditions: read-out: IC50* NRAS G12C FRET data
Sequence (P01111 whole entry G12C): as the sequence (P01111 whole entry) above, with G12C counted along it
Sequence (P62937 whole entry): as the sequence (P62937 whole entry) above
pIC50: −log10 of the molar value.
ASSAY READOUT: pIC50

[[record]]
compound = "CC#CC(=O)N1CC[C@H](C(=O)N(C)[C@H](C(=O)N[C@H]2Cc3cccc(c3)-c3ccc4c(c3)c(c(-c3cccnc3[C@H](C)OC)n4CC)CC(C)(C)COC(=O)[C@@H]3CCCN(N3)C2=O)C2CCCC2)C1 (atropisomer, axis not shown) [Example A310]"
observed_value = "6.00 to 7.00"


# pIC50 of C=CC(=O)N1CC[C@H](C(=O)N(C)[C@@H](CC(F)(F)F)C(=O)N[C@H]2Cc3cccc(c3)-c3ccc4c(c3)c(c(-c3cccnc3[C@H](C)OC)n4CC)CC(C)(C)COC(=O)[C@@H]3CCCN(N3)C2=O)C1 (atropisomer, axis not shown) [Example A639] = 6.00 to 7.00

====

molecular target: NRAS G12C (Homo sapiens (Human), UniProt P01111+P62937, G12C); assay: Ras-Raf (BRAF RBD) disruption / FRET / MOA assay, NRAS G12C; format: biochemical; conditions: read-out: IC50* NRAS G12C FRET data
pIC50: −log10 of the molar value.
Catalogue of pIC50 readings, one per entry.

[[record]]
molecule = "C=CC(=O)N1CC[C@H](C(=O)N(C)[C@H](C(=O)N[C@H]2Cc3cc(O)cc(c3)-c3ccc4c(c3)c(c(-c3cccnc3CNC)n4CC)CC(C)(C)COC(=O)[C@@H]3CCCN(N3)C2=O)C(C)C)C1"
observed_value = "6.00 to 7.00"

[[record]]
molecule = "CO[C@@H](C)c1ncccc1-c1c2c3cc(ccc3n1CC(F)(F)F)-c1csc(n1)C[C@H](NC(=O)[C@H](C(C)C)N(C)C(=O)N1C[C@@H]3OCCN(C(=O)/C=C/CN(C)C)[C@@H]3C1)C(=O)N1CCC[C@H](N1)C(=O)OCC(C)(C)C2 (atropisomer, axis not shown)"
observed_value = "7.00 to 8.00"


Form: molecule = CCn1c(-c2cccnc2[C@H](C)OC)c2c3cc(ccc31)-c1cccc(c1)CC(NC(=O)[C@H](C(C)C)N1CC[C@]3(CCN(C(=O)C#C[C@@H]4COCCN4C4COC4)C3)C1=O)C(=O)N1CCC[C@H](N1)C(=O)OCC(C)(C)C2 (some centres unmarked) ; pIC50 = 6.00 to 7.00

====

tested on: NCI-H358 cells (K-Ras G12C); assay: Potency assay: pERK in NCI-H358 cells; format: cell-based, human; conditions: Homo sapiens, NCI-H358; H358 KRAS G12C; read-out: pERK EC50
ASSAY READOUT: EC50

[[record]]
compound = "CCn1c(-c2cccnc2COC)c2c3cc(ccc31)-c1cccc(c1)C[C@H](NC(=O)[C@H](C(C)C)N(C)C(=O)[C@H]1CCN(C(=O)C#CCN(C)C)C1)C(=O)N1CCC[C@H](N1)C(=O)OCC(C)(C)C2 (atropisomer, axis not shown)"
assay_readout = "EC50"
observed_value = "< 5 µM"


Turning now to a further compound:
Consider C=CC(=O)N1CC(OCC(C(=O)N[C@H]2Cc3cccc(c3)-c3ccc4c(c3)c(c(-c3cccnc3[C@H](C)OC)n4CC)CC(C)(C)COC(=O)[C@@H]3CCCN(N3)C2=O)C(C)C)C1 (some centres unmarked) . Its measured EC50 is < 5 µM

====

Recorded pIC50, one value per entry.
molecular target: KRAS WT (Homo sapiens (Human), UniProt P01116+P62937); experiment: Ras-Raf (BRAF RBD) disruption / FRET / MOA assay, KRAS WT; type: biochemical; details: read-out: IC50* KRAS WT FRET data
Sequence (P01116-2 other isoform, or with tags, fused parts or gaps): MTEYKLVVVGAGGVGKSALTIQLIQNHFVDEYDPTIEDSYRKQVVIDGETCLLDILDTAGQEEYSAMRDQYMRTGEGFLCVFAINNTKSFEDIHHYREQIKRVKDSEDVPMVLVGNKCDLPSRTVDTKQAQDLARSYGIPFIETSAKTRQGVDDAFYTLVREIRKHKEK
Sequence (P62937 whole entry): as the sequence (P62937 whole entry) above
pIC50: −log10 of the molar value.

[[record]]
compound = "CCn1c(-c2cccnc2[C@H](C)OC)c2c3cc(ccc31)-c1cc(O)cc(c1)C[C@H](NC(=O)[C@H](C(C)C)N(C)C(=O)[C@H]1CCN(C(=O)/C=C/C(F)(F)F)C1)C(=O)N1CCC[C@H](N1)C(=O)OCC(C)(C)C2"
observed_value = "7.00 to 8.00"


# pIC50 (compound: CCn1c(-c2cccnc2[C@H](C)OC)c2c3cc(ccc31)-c1csc(n1)C[C@H](NC(=O)[C@H](C(C)C)N(C)C(=O)N1CCCOC13CN(C(=O)C#CC(C)(C)N(C)C)C3)C(=O)N1CCC[C@H](N1)C(=O)OCC(C)(C)C2 (atropisomer, axis not shown) ) is < 5.00

// pIC50 value for C=CC(=O)N(C)CCC(=O)N(C)[C@H](C(=O)N[C@H]1Cc2cc(O)cc(c2)-c2ccc3c(c2)c(c(-c2cccnc2COC)n3CC)CC(C)(C)COC(=O)[C@@H]2CCCN(N2)C1=O)C(C)C : 5.00 to 6.00

Memo: C/C=C/S(=O)(=O)N1CC[C@H](C(=O)N(C)[C@H](C(=O)N[C@H]2Cc3cc(O)cc(c3)-c3ccc4c(c3)c(c(-c3cccnc3[C@H](C)OC)n4CC)CC(C)(C)COC(=O)[C@@H]3CCCN(N3)C2=O)C(C)C)C1 (atropisomer, axis not shown) , reported pIC50: 7.00 to 8.00

The reported numbers originate from patent US11566007B2.
